# EXPERIMENTAL_TARGET: LIMK2 (Homo sapiens, UniProt P53671)
# Sequence (P53671 whole entry): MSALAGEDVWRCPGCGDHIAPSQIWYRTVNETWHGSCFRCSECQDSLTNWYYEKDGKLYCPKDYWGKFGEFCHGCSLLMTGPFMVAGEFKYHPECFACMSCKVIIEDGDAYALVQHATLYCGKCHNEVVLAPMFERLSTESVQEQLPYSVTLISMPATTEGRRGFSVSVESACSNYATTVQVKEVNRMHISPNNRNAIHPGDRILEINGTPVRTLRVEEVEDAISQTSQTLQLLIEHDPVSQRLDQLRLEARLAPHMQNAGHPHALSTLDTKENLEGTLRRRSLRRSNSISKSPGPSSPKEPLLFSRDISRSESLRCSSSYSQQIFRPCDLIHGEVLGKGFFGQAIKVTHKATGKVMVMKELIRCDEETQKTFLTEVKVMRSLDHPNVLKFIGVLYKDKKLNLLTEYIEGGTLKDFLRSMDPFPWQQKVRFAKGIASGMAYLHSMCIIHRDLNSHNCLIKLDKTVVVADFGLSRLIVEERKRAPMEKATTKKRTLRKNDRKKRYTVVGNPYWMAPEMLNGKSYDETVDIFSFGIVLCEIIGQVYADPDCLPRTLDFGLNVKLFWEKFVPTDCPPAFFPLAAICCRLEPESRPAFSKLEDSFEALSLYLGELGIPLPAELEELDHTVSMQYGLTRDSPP
ENDPOINT_LABEL: IC50

{"CHEMICAL_STRUCTURE": "COCC(=O)NCC1(C(=O)Nc2cccc(OC(=O)N(C)C)c2)CCN(c2ncnc3[nH]cc(C)c23)CC1", "EXPERIMENTAL_TARGET": "LIMK2 (Homo sapiens, UniProt P53671)", "READOUT_VALUE": "< 250 nM"}
{"CHEMICAL_STRUCTURE": "CCN(CC)C(=O)Oc1cccc(NC(=O)C2(CN)CCN(c3ncnc4[nH]cc(C)c34)CC2)c1", "EXPERIMENTAL_TARGET": "LIMK2 (Homo sapiens, UniProt P53671)", "READOUT_VALUE": "< 250 nM"}
{"CHEMICAL_STRUCTURE": "Cc1c[nH]c2ncnc(N3CCC(CN)(C(=O)Nc4ccc5nc(N(C)C)oc5c4)CC3)c12", "EXPERIMENTAL_TARGET": "LIMK2 (Homo sapiens, UniProt P53671)", "READOUT_VALUE": "< 500 nM"}
{"CHEMICAL_STRUCTURE": "Cc1c[nH]c2ncnc(N3CCC(C#N)(C(=O)Nc4cccc(OC(=O)N(C)C)c4)CC3)c12", "EXPERIMENTAL_TARGET": "LIMK2 (Homo sapiens, UniProt P53671)", "READOUT_VALUE": "< 250 nM"}

----------
Listed here: items and their measured pIC50.
# EXPERIMENTAL_TARGET: LIMK2 (Homo sapiens, UniProt P53671)
# Construct: His tag (histidine-tagged; pFastBacHT vector); made in house; host or cells: Sf9 insect cells (BAC-to-BAC baculovirus system)
# ASSAY_METHOD_TEXT: In vitro LIMK2 inhibition assay (33P incorporation into myelin basic protein flash plates)
# Assay type: biochemical
pIC50: −log10 of the molar value.
ENDPOINT_LABEL: pIC50

{"CHEMICAL_STRUCTURE": "Cc1c[nH]c2ncnc(N3CCC(Cc4nnn[nH]4)(C(=O)Nc4cccc(OC(=O)N(C)C)c4)CC3)c12", "ENDPOINT_LABEL": "pIC50", "READOUT_VALUE": "> 6.60"}
{"CHEMICAL_STRUCTURE": "CNc1nc2ccc(NC(=O)C3(CN)CCN(c4ncnc5[nH]cc(C)c45)CC3)cc2o1", "ENDPOINT_LABEL": "pIC50", "READOUT_VALUE": "> 6.30"}
{"CHEMICAL_STRUCTURE": "Cc1c[nH]c2ncnc(N3CCC(CN)(C(=O)Nc4cccc(OC(C)C)c4)CC3)c12", "ENDPOINT_LABEL": "pIC50", "READOUT_VALUE": "> 6.60"}
{"CHEMICAL_STRUCTURE": "Cc1c[nH]c2ncnc(N3CCC(CNS(C)(=O)=O)(C(=O)Nc4cccc(OC(=O)N(C)C)c4)CC3)c12", "ENDPOINT_LABEL": "pIC50", "READOUT_VALUE": "> 6.60"}
{"CHEMICAL_STRUCTURE": "CC(=O)NCC1(C(=O)Nc2cccc(OC(=O)N(C)C)c2)CCN(c2ncnc3[nH]cc(C)c23)CC1", "ENDPOINT_LABEL": "pIC50", "READOUT_VALUE": "> 6.60"}
{"CHEMICAL_STRUCTURE": "Cc1c[nH]c2ncnc(N3CCC(NCCNC(=O)OC(C)(C)C)(C(=O)Nc4cccc(OC(=O)N(C)C)c4)CC3)c12", "ENDPOINT_LABEL": "pIC50", "READOUT_VALUE": "> 6.60"}
{"CHEMICAL_STRUCTURE": "Cc1c[nH]c2ncnc(N3CCC(CNS(N)(=O)=O)(C(=O)Nc4cccc(OC(=O)N(C)C)c4)CC3)c12", "ENDPOINT_LABEL": "pIC50", "READOUT_VALUE": "> 6.60"}
{"CHEMICAL_STRUCTURE": "Cc1c[nH]c2ncnc(N3CCC(CNC(=O)c4cnn(C)c4)(C(=O)Nc4cccc(OC(=O)N(C)C)c4)CC3)c12", "ENDPOINT_LABEL": "pIC50", "READOUT_VALUE": "> 6.60"}
